Origin of values: patent US20240368115A1

- system name: D2S receptor (Homo sapiens, UniProt P14416)
- Sequence (P14416 1-414 isoform P14416-2): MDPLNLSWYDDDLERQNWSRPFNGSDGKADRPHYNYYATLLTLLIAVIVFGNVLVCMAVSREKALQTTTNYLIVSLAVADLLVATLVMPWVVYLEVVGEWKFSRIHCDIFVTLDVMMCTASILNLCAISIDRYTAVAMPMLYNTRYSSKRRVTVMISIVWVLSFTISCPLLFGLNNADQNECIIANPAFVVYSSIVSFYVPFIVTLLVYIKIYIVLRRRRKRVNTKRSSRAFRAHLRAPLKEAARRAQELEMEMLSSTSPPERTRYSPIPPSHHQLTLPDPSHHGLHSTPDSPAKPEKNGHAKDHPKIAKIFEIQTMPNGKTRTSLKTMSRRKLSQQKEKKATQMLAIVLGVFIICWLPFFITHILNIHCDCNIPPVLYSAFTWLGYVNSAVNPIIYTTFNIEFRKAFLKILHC
- run description: D2S receptor cAMP agonist test
- condition summary: HEK293 cell strain stably expressing D2S receptor; cAMP; forskolin 5×10^−7 M
pEC50: −log10 of the molar value.
Recorded pEC50 for the following compounds

{"compound": "O=C1Nc2cc(OCCCCN3CCN(c4cccc5sccc45)CC3)ccc2C2CC12 (single isomer, unassigned) [Example 42-P2]", "pEC50": 9.03}
{"compound": "O=C1Nc2cc(OCCCCN3CCN(c4cccc5c4CC(F)(F)C5=O)CC3)ccc2C2CC12 (stereo not shown)", "pEC50": 9.01}
{"compound": "O=C1Nc2cc(OCCCCN3CCN(c4cccc(O)c4Cl)CC3)ccc2C2CC12 (stereo not shown)", "pEC50": 9.06}
{"compound": "O=C1Nc2cc(OCCCCN3CCN(c4cccc5sc(Cl)cc45)CC3)ccc2C2CC12 (stereo not shown)", "pEC50": 9.00}
